Cited source for all entries: PubChem BioAssay (NCI)

Item-by-item account of GI50
tested on: A549 NSCLC; assay: NCI tumour cell line growth inhibition, 48 h

{"compound": "Cc1cc(C(=O)Nc2ccc3cc(CN4CCOCC4)ccc3n2)c(C)n1-c1ccccc1", "GI50": "2420 nM"}
{"compound": "CCNCCNc1cc(-c2ccc(C(F)(F)F)cc2)c(C#N)c2nc3ccccc3n12", "GI50": "1750 nM"}
{"compound": "c1ccc(Sc2ccc(Cc3nc4cc5ccccc5cc4[nH]3)cc2)cc1", "GI50": "2330 nM"}
{"compound": "O=C1c2cccnc2-c2nc(-c3ccc(Cl)cc3)cc3c2c1nc1ccccc13", "GI50": "35600 nM"}
{"compound": "COc1ccc(-c2[nH]c3ccc(OC)cc3c2/C=C(\\C#N)S(=O)(=O)c2ccccc2)cc1", "GI50": "2010 nM"}
{"compound": "CC12OC(C(=O)C13CC3)C1C(=O)c3ccc4c(ccc5ccccc54)c3C(=O)C12 (centres undefined)", "GI50": "45000 nM"}
{"compound": "CC/C=C\\C[C@H](O)C/C=C1/C(=O)C=C[C@@H]1C/C=C\\CCCC(=O)OC", "GI50": "2780 nM"}
{"compound": "COc1ccccc1CNCCCN1C(=O)c2ccc3c4c(ccc(c24)C1=O)C(=O)N(CCCNCCNCCCN)C3=O", "GI50": "3010 nM"}
{"compound": "COc1cc2c(cc1OCCCCC(=O)Nc1cc3c4ccccc4ccc3c3ccccc13)N=C[C@@H]1CCCN1C2=O", "GI50": "27100 nM"}
